Test system: HCV replicon
Assay: microbe, parasite or virus in culture
Type: cell-based
Conditions: Replicon IC50 values are determined by firefly luciferase signal; bicistronic replicon, 2 days; read-out: Replicon IC5Os
pIC50: −log10 of the molar value.
Entries and their measured pIC50 follow.

[
  {
    "Structure smiles": "COc1ccc2c(C#N)c(-c3ccc(S(=O)(=O)NC4CC4)cc3)n(CC3CCCC3)c2c1",
    "pIC50": "5.70 to 6.30"
  },
  {
    "Structure smiles": "CCn1c(-c2cccs2)c(C#N)c2ccc(OC)cc21",
    "pIC50": "< 5.70"
  },
  {
    "Structure smiles": "CCCn1c(-c2ccc(NC(=O)OCCF)cc2)c(C#N)c2ccc(OC)cc21",
    "pIC50": "5.70 to 6.30"
  },
  {
    "Structure smiles": "CCn1c(-c2ccc(NS(=O)(=O)C3CC3)cc2)c(C#N)c2ccc(OC)cc21",
    "pIC50": "5.70 to 6.30"
  },
  {
    "Structure smiles": "CCn1c(-c2ccc(O)cc2)c(C#N)c2ccc(OC)cc21",
    "pIC50": "< 5.70"
  },
  {
    "Structure smiles": "COc1ccc(-n2cc(C#N)c3ccc(NC(=O)NC(C)(C)C)cc32)cc1",
    "pIC50": "< 5.70"
  },
  {
    "Structure smiles": "COCCOC(=O)Nc1cccc(-c2c(C#N)c3ccc(OC)cc3n2C(C)C)c1",
    "pIC50": "< 5.70"
  },
  {
    "Structure smiles": "CCCCOC(=O)Nc1cccc(-c2c(C#N)c3ccc(OC(C)C)cc3n2CC)c1",
    "pIC50": "< 5.70"
  },
  {
    "Structure smiles": "C#CCCOC(=O)Nc1ccc(-c2c(C#N)c3ccc(OC)cc3n2CC)cc1",
    "pIC50": "< 5.70"
  },
  {
    "Structure smiles": "CCn1c(-c2cccc(N)c2)c(C#N)c2cc(-c3cccc(OC)c3)ccc21",
    "pIC50": "5.70 to 6.30"
  },
  {
    "Structure smiles": "COc1ccc2c(C#N)c(C#Cc3cccc(O)c3)[nH]c2c1",
    "pIC50": "< 5.70"
  },
  {
    "Structure smiles": "CCn1c(-c2ccc(C(=O)NCCOC)cc2)c(C#N)c2cc(OC)ccc21",
    "pIC50": "5.70 to 6.30"
  },
  {
    "Structure smiles": "CC(C)Oc1ccc2c(C#N)c(-c3ccc(O)c(N)c3)[nH]c2c1",
    "pIC50": "< 5.70"
  },
  {
    "Structure smiles": "CCCOC(=O)Nc1ccc(F)c(-c2c(C#N)c3ccc(OC(C)C)cc3n2CC)c1",
    "pIC50": "< 5.70"
  },
  {
    "Structure smiles": "CCn1c(C#Cc2cccc(OC)c2)c(C#N)c2ccc(OC)cc21",
    "pIC50": "< 5.70"
  },
  {
    "Structure smiles": "CCNC(=O)Nc1ccc(-c2c(C#N)c3cc(Cl)ccc3n2CC)cc1",
    "pIC50": "5.70 to 6.30"
  },
  {
    "Structure smiles": "COc1ccc(-n2cc(C#N)c3ccc(C)cc32)cc1",
    "pIC50": "< 5.70"
  },
  {
    "Structure smiles": "CCn1c(-c2ccc(SC)cc2)c(C#N)c2ccc(OC)cc21",
    "pIC50": "< 5.70"
  },
  {
    "Structure smiles": "CCn1cc(-c2noc(C3CC3)n2)c2ccc(OC)cc21",
    "pIC50": "< 5.70"
  },
  {
    "Structure smiles": "COc1ccc2c(C#N)c(-c3ccc(NS(C)(=O)=O)cc3)n(CC(C)C)c2c1",
    "pIC50": "5.70 to 6.30"
  },
  {
    "Structure smiles": "CCOC(=O)Nc1cccc(-c2c(C#N)c3ccc(OCCCl)cc3n2CC)c1",
    "pIC50": "< 5.70"
  },
  {
    "Structure smiles": "CCn1c(-c2ccc(C(C)C)cc2)c(C#N)c2ccc(C(N)=O)cc21",
    "pIC50": "< 5.70"
  },
  {
    "Structure smiles": "CCn1c(-c2cccc(NC(=O)OC(C)C)c2)c(C#N)c2cc(OC)ccc21",
    "pIC50": "< 5.70"
  },
  {
    "Structure smiles": "CCn1c(C#Cc2ccc(C)cc2)c(C#N)c2ccc(OC)cc21",
    "pIC50": "5.70 to 6.30"
  },
  {
    "Structure smiles": "CCOC(=O)c1ccc(-c2c(C#N)c3ccc(OC)cc3n2CC)cc1",
    "pIC50": "5.70 to 6.30"
  },
  {
    "Structure smiles": "CCn1c(-c2cccc(NC(=O)CCl)c2)c(C#N)c2ccc(OC)cc21",
    "pIC50": "< 5.70"
  },
  {
    "Structure smiles": "CCn1c(-c2ccc(OCCO)cc2)c(C#N)c2ccc(OC)cc21",
    "pIC50": "5.70 to 6.30"
  },
  {
    "Structure smiles": "CCn1c(-c2ccc(C(=O)N3CCOCC3)cc2)c(C#N)c2ccc(OC)cc21",
    "pIC50": "< 5.70"
  },
  {
    "Structure smiles": "CCn1c(-c2ccc(N)cc2)c(C#N)c2ccc(C(F)(F)F)cc21",
    "pIC50": "< 5.70"
  },
  {
    "Structure smiles": "CCn1c(C#Cc2ccc(NC(=O)c3c[nH]cn3)cc2)c(C#N)c2ccc(OC)cc21",
    "pIC50": "5.70 to 6.30"
  },
  {
    "Structure smiles": "COc1ccc2c(C#N)c(-c3ccc(N(C)S(C)(=O)=O)cc3)n(CC3CC3)c2c1",
    "pIC50": "5.70 to 6.30"
  },
  {
    "Structure smiles": "COc1ccc2c(C#N)c(-c3ccc4c(c3)OCO4)n(C)c2c1",
    "pIC50": "< 5.70"
  },
  {
    "Structure smiles": "CCn1c(-c2ccc3c(c2)OCO3)c(C#N)c2ccc(C(F)(F)F)cc21",
    "pIC50": "< 5.70"
  },
  {
    "Structure smiles": "CCn1c(C#Cc2cccc3ccccc23)c(C#N)c2ccc(O)cc21",
    "pIC50": "5.70 to 6.30"
  },
  {
    "Structure smiles": "CCn1c(-c2ccc(NS(C)(=O)=O)cc2)c(C#N)c2ccc(OCCN3CCCCC3)cc21",
    "pIC50": "< 5.70"
  },
  {
    "Structure smiles": "CCn1c(NC)c(C#N)c2ccc(C(F)(F)F)cc21",
    "pIC50": "< 5.70"
  }
]
